tested on: MDA-MB-231 breast; test: NCI-60 one-dose screen, 48 h; conditions: 10 µM unless noted
Compounds without any hit were thinned out: in the full panel of roughly 83,000, 20% have a hit. Calls of active or inactive are those of the source. Rule for the calls: active = growth percent below 10; inactive = the rest.
Answer with one of the outcomes YES (active), NO (inactive)

CC(C)(C)c1ccc(Cn2cc(CSc3nc4ccccc4s3)nn2)cc1 | NO
COC(=O)[C@]12CC[C@@H](C)[C@H](C)[C@@H]1C1=CC[C@@H]3[C@@]4(C)C(C#N)=CC(C)=C4CC[C@@]3(C)[C@]1(C)CC2 | NO
Clc1ccc(C(Cn2ccnc2)OCc2ccsc2Cl)c(Cl)c1 (stereo not drawn) | NO
COC(=O)[C@@H](OC)[C@@H]1Cc2cc3cc(OC4CC(OC5CC(O)C(O)C(C)O5)C(O)C(C)O4)c(C)c(O)c3c(O)c2C(=O)[C@H]1OC1CC(OC2CC(OC3CC(C)(O)C(O)C(C)O3)C(O)C(C)O2)C(O)C(C)O1 (stereo partly drawn) | YES
Nc1nc(Nc2ccccc2)c(C=Nc2ccccc2)c(=O)[nH]1 | NO
NC(=O)Nc1cc(-c2cccc(F)c2)sc1C(=O)N[C@H]1CCCNC1 | YES
COc1cc2c(cc1O)c(=O)n(CCN(C)C)c1c3cc4c(cc3ncc21)OCO4 | YES

Pending compound:
Which result was noted for this compound in the test: CCN1CCN(Cc2ccc(Cc3ncc(F)c(-c4cc(F)c5nc(C)n(C(C)C)c5c4)n3)nc2)CC1
NO

----------
Items are presented alongside their recorded growth.
Test system: MDA-MB-435 melanoma
Experiment: NCI-60 one-dose screen, 48 h (100 = growth as untreated, 0 = no growth, -100 = all killed)
Conditions: 10 µM unless noted
Experimental: Growth inhibition of the MDA-MB-435 human Melanoma tumor cell line is measured as a screen for anti-cancer activity. Cells are grown in 96 well plates and exposed to the test compound for 48 hours. Compounds are tested at a single concentration, which is 10^-5 M for most compounds. The reported endpoint is percent growth (GI% or GIPRCNT), where numbers from 0 - 100% represent growth inhibition, and numbers from -100% - 0 represent cell death. […]
This is part of a sample that, as a whole, favours compounds with a hit. Of some 83,000 tested, about 20% had one in any assay.
Write it as a number; the unit % goes unstated.

Consider the following illustrative entries.
Cc1cccc(Cl)c1NC(=O)c1cnc(Nc2cc(N3CCOCC3)cc(S(C)(=O)=O)c2)s1 | 69.9
O=C(Nc1ccc(C(=O)Nc2ccc(C3=NCCCN3)cc2)cc1)Nc1ccc(C2=NCCCN2)cc1 | 103
Cc1cc2c(-c3nc4ccccn4c3NC3CCCCC3)c(O)c(O)cc2c(O)c1-c1c(C)cc2c(-c3nc4ccccn4c3NC3CCCCC3)c(O)c(O)cc2c1O | 27.5
C[C@@H]1COC(Nc2ccc3ncnc(Nc4ccc(OCc5nccs5)c(Cl)c4)c3c2)=N1 | 50.1

Continue with the compound presented below.
Supply growth value. Item: CC[C@@H]1C(=O)N(C)c2cnc(Nc3ccc(C(=O)NC4CCC(N5CCN(CC6CC6)CC5)CC4)cc3OC)nc2N1C(C)C (some centres undefined)
-29.6

----------
test system: SF-268 CNS; assay: NCI-60 one-dose screen, 48 h; settings: 10 µM unless noted
About 83,000 compounds went through this panel and 20% of them were active in at least one assay; those are over-represented in the sample as a whole. Active and inactive are the calls of the source. How the source made its calls: active means growth percent below 10; inactive means the rest.
Answer with one of the outcomes active, inactive

The following molecules have reported results that may help.
CC(N)C(Cc1ccccc1)c1ccc(Cl)cc1 (stereo not given) | inactive
NC(=O)c1n[nH]n2c1nc(=O)c1c3c(sc12)CCCC3 | inactive
O=C(Nc1cnn2ccc(N3CCC[C@@H]3c3cc(F)ccc3F)nc12)N1CC[C@H](O)C1 | inactive
O=C1C=CC2(NN=C(c3ccccc3)N2c2cccc(Cl)c2)C(Cl)=C1 (stereo not given) | inactive
CCCCCCCC12Cc3ccccc3C1=Nc1c(c3ccccc3n1C)C2=O (stereo not given) | inactive
NC[C@@](O)(c1ccc(Cl)cc1)c1ccc(-c2cn[nH]c2)cc1 | inactive

Which result was noted for this molecule in the test: O=C(NOCCO)c1cc(CN2OCCCC2=O)c(F)c(F)c1Nc1ccc(I)cc1F
inactive

Which result was noted for this molecule in the test: COC1CCC(N2C(=O)CNc3ncc(-c4ccc(C(C)(C)O)nc4)nc32)CC1 (stereo not given)
inactive

Which result was noted for this molecule in the test: CNC(=O)c1ccccc1Nc1nc(Nc2ccc3c(c2OC)CCC[C@H](N2CCN(CCO)CC2)C3)ncc1Cl
inactive

Which result was noted for this molecule in the test: O=C(NC[C@H](O)CO)c1ccncc1Nc1ccc(I)cc1F
inactive

Which result was noted for this molecule in the test: CCC1(/C=N/NC(N)=S)NC(=O)NC1=O (stereo not given)
inactive

Which result was noted for this molecule in the test: NC1=Nc2ccccc2N(O)N1
inactive

Which result was noted for this molecule in the test: O=C(Nc1ccc(-c2ccnc(Nc3ccc(N4CCOCC4)cc3)n2)cc1)[C@@H]1CCCN1
inactive

Which result was noted for this molecule in the test: CNS(=O)(=O)Nc1nccc(Cc2c(C)c3ccc(Oc4ncccn4)cc3oc2=O)c1F
inactive

----------
test system: MDA-MB-435 melanoma; assay: NCI-60 one-dose screen, 48 h; details: 10 µM unless noted
This is part of a sample that, as a whole, favours compounds with a hit. Of some 83,000 tested, about 20% had one in any assay. Active and inactive are the calls of the source. Rule for the calls: active = growth percent below 10; inactive = the rest.
Answer with one of the outcomes y (active), n (inactive)

O=[N+]([O-])c1cc(Br)cc2c1[nH]c1ccc(Br)cc12 | n

Which result was noted for this molecule in the test: COc1cc(OC)c(/C=C/S(=O)(=O)Cc2ccc(OC)c(NCC(=O)O)c2)c(OC)c1
y

Which result was noted for this molecule in the test: Nc1nc(N)c2nc(-c3cccc(O)c3)c(-c3cccc(O)c3)nc2n1
n

Which result was noted for this molecule in the test: CN[C@@H]1C[C@H]2O[C@@](C)([C@@H]1OC)n1c3ccccc3c3c4c(c5c6ccccc6n2c5c31)C(=O)N[C@H]4O
y

Which result was noted for this molecule in the test: COc1cc2c(c(OC)c1)C1c3ccccc3NC(=O)N1CC2 (stereo unspecified)
y

Which result was noted for this molecule in the test: Ic1ccccc1-c1ccccc1
n

----------
tested on: HS 578T breast; assay: NCI-60 one-dose screen, 48 h (100 = growth as untreated, 0 = no growth, -100 = all killed); conditions: 10 µM
Compounds without any hit were thinned out: in the full panel of roughly 83,000, 20% have a hit. Calls of active or inactive are those of the source. Rule for the calls: active = growth percent below 10; inactive = the rest.
quantity measured: growth

Consider the following illustrative entries.
C=CC(=O)N(C)[C@H]1C[C@H]2OC(C)(C1OC)n1c3ccccc3c3c4c(c5c6ccccc6n2c5c31)C(=O)NC4 (some centres undefined) | -14.9% (active)
COC[C@@H](C)n1c(C2CCOCC2)nc2c1C1C=C(OC)C(c3c(C)noc3C)=CC1N=C2 (some centres undefined) | 35% (inactive)
CCc1nc2ccc(Cc3ccc(C(=O)NO)cc3)cc2c(=O)n1CCc1ccccc1 | 14.9% (inactive)
NC1=Nc2ccccc2N(O)N1 | 97.3% (inactive)
Cc1sc2c(c1C)c(=O)nc1c(-c3nc(-c4ccccc4)cs3)n[nH]n12 | 93.4% (inactive)

Report growth on HS 578T breast for this entry: COc1cc2cc(NCc3ccc(Cl)cc3)nc(C)c2cc1OC
70.5% (inactive)

Report growth on HS 578T breast for this entry: COc1ccc2c(CCc3ccc(Cl)cc3)c3[n+](cc2c1OC)CCc1cc2c(cc1-3)OCO2
79.6% (inactive)

Report growth on HS 578T breast for this entry: N#Cc1c(-c2ccc(C(F)(F)F)cc2)cc(NCC2CCS(=O)(=O)CC2)n2c1nc1ccccc12
81.3% (inactive)

Report growth on HS 578T breast for this entry: COc1cnc2c(c1)C(=O)c1c-2n(CCCN2CCC(N)CC2)c(=O)c2cc([N+](=O)[O-])ccc12
81.4% (inactive)

----------
test system: HT29 colon; experiment: NCI-60 one-dose screen, 48 h; details: 10 µM unless noted
Compounds without any hit were thinned out: in the full panel of roughly 83,000, 20% have a hit. Calls of active or inactive are those of the source. Rule for the calls: active = growth percent below 10; inactive = the rest.
Answer with one of the outcomes yes for active, no for inactive

CC(=O)Nc1cccc(-n2c(=O)n(C3CC3)c(=O)c3c(Nc4ccc(I)cc4F)n(C)c(=O)c(C)c32)c1 | yes
C[C@@H]1COC(Nc2ccc3ncnc(Nc4ccc(OCc5nccs5)c(Cl)c4)c3c2)=N1 | no
FC(F)c1nc2ccccc2n1-c1nc(N2CCOCC2)nc(N2CCOCC2)n1 | yes
Nc1c(C(=O)c2ccccc2)sc2nc(-c3cccs3)cc(-c3cccs3)c12 | no
CSc1nc2ncnc(SC)c2[nH]1 | no
Cc1cc([C@@H](C)Nc2ccccc2C(=O)O)c2nc(N3CCOCC3)cc(=O)n2c1 | no
CN(N)c1nc2sc3c(c2c(=O)[nH]1)CCCC3 | no
CO[C@H]1C[C@@H]2CC[C@@H](C)[C@@](O)(O2)C(=O)C(=O)N2CCCC[C@H]2C(=O)O[C@H]([C@H](C)C[C@@H]2CC[C@@H](OP(C)(C)=O)[C@H](OC)C2)CC(=O)[C@H](C)/C=C(\C)[C@@H](O)[C@@H](OC)C(=O)[C@H](C)C[C@H](C)\C=C/C=C/C=C/1C | no

Which result was noted for this compound in the test: COc1ccc(-c2cnc(-c3ccc(Cl)cc3)[nH]2)cc1OC
no

Which result was noted for this compound in the test: COc1cc(C2CC(c3ccc(Cl)cc3)=NN2c2ccc(Cl)cc2)cc(OC)c1OC (centres undefined)
no

Which result was noted for this compound in the test: CC(N)C(Cc1ccc(Cl)cc1)c1ccc(Cl)cc1 (centres undefined)
yes

Which result was noted for this compound in the test: Clc1ccc(C(Cn2ccnc2)OCc2ccsc2Cl)c(Cl)c1 (centres undefined)
no

Which result was noted for this compound in the test: O=C(Nc1nc2cccc(-c3ccc(CN4CCS(=O)(=O)CC4)cc3)n2n1)C1CC1
no

Which result was noted for this compound in the test: NN1C(=O)CSC1=S
no
